Data provenance: the supplement of paper PMC4862054

Listed here are compounds together with their documented drug sensitivity score.
system: MDA-MB-231; assay: drug sensitivity score (DSS), CellTiter-Blue viability (DSS (AUC-based score)); higher = stronger viability inhibition; extreme values may be limits of the assay; settings: incubation time: 72 h

COMPOUND | drug sensitivity score
COc1ncc(-c2ccc3nccc(-c4ccnnc4)c3c2)cc1NS(=O)(=O)c1ccc(F)cc1F | 13.3
CCOc1cc2ncc(C#N)c(Nc3ccc(OCc4ccccn4)c(Cl)c3)c2cc1NC(=O)/C=C/CN(C)C | 0
C#Cc1cccc(Nc2ncnc3cc(OC)c(OCCCCCCC(=O)NO)cc23)c1 | 12
c1ccc(C2CN3CCSC3=N2)cc1 (centres undefined) | 0
